Cited source for all entries: PubChem BioAssay (NCI)

- Test system: NCI-H23 lung
- run.description: NCI-60 one-dose screen, 48 h (100 = growth as untreated, 0 = no growth, -100 = all killed)
- measurement.conditions: 10 µM unless noted
The panel holds about 83,000 compounds, 20% with a hit somewhere; the sample as a whole holds those more often.
endpoint.name: growth (%)
Value expressed in %; do not type the unit.

Notebook entry, NCI-H23 lung assay: growth of CN1CCN(c2ccc(Nc3nc(NCCNC(=O)c4ccc(F)cc4)c4sccc4n3)cc2)CC1 = ? 74.2

For the record C=C(C)[C@@H]1CC[C@]2(C(=O)N3CCN(C)CC3)CC[C@]3(C)[C@H](CC[C@@H]4[C@@]5(C)CC[C@H](OP(=O)(OCC)OCC)C(C)(C)[C@@H]5CC[C@]43C)[C@@H]12 , what value of growth is listed for NCI-H23 lung? 83.1

Give the reported growth for CC(C)NC(=O)c1cc(-c2ccc(NC(=O)Nc3ccc(F)c(C(F)(F)F)c3)cc2)nc2cccnc12 (system: NCI-H23 lung). 93.2

Fill in the recorded growth for this molecule, with NCI-H23 lung as test system: CC(C)(C)c1cc(NC(=O)Nc2ccc(-c3cn4c5c(sc4n3)CCc3cn(CCCN4CCCCC4)cc3-5)cc2)no1 -84.2

Request: growth, test system NCI-H23 lung, entry CS(=O)(=O)c1nccc(-c2c(-c3cccc(OCc4ccc(Cl)c(C(F)(F)F)c4)c3)nc3sccn23)n1 39.4

Report growth for COc1ccc2sc(NC(=O)CCCCCCNC(=O)C(O)(O)C(F)(F)F)nc2c1 tested on NCI-H23 lung. 1.72

Identify the measured growth of CC[C@]12C=CCN3CC[C@@]4(c5ccc(OC)cc5N(C)[C@H]4[C@@](O)(C(=O)OC)[C@@H]1OC(=O)CCN1CCc4ccccc4C1)[C@@H]32 for NCI-H23 lung. 81.9

###

- Tested on: SK-MEL-28 melanoma
- run.description: NCI-60 one-dose screen, 48 h (100 = growth as untreated, 0 = no growth, -100 = all killed)
- measurement.conditions: 10 µM unless noted
This is part of a sample that, as a whole, favours compounds with a hit. Of some 83,000 tested, about 20% had one in any assay.
Parameter: growth. Scope: all listed entries.
Your answer is read as %, so omit the unit and give the number.

>>> df
                            chemical_smiles  experimental_result
0        O=C(O)CC1CCN(c2ccc3nnc(Cl)n3n2)CC1                  102
1  O=S(=O)(NCCCNc1nccc(-c2[nH]c(-c3ccccc3)nc2-c2ccc(F)c(O)c2)n1)c1cccc2ccccc12                 54.3
2   CCCCc1nc2c(N)nc3ccccc3c2n1Cc1ccc(OC)cc1                 90.2
3  CC/C(=C(/c1ccc(Cl)cc1)c1ccc(OCCN)cc1)c1ccccc1                  108

Please find the next compound below.
I would be grateful if you could share the reported growth for COc1cc(/C=N\NC(=O)c2ccc3nc(-c4ccc(Br)cc4)[nH]c3c2)cc(OC)c1OC . 30.2

###

- Test system: HCT-15 colon
- run.description: NCI-60 one-dose screen, 48 h (100 = growth as untreated, 0 = no growth, -100 = all killed)
- measurement.conditions: 10 µM unless noted
About 83,000 compounds went through this panel and 20% of them were active in at least one assay; those are over-represented in the sample as a whole.
# label = yes if growth < 50% else no

chemical.smiles	target.entity	classification
COc1cc2c3c(cc4c5c(ccc4c3c1OC)OCO5)N(CCN(C)C)C2=O	HCT-15 colon	yes
COc1ccc2[nH]cc(-c3nn4cc(-c5ccncc5)nc4s3)c2c1	HCT-15 colon	yes
CCN(CC)S(=O)(=O)c1ccc(-c2nc(C(Cl)Cl)nc3cc(-c4ccc(F)cc4)nn23)cc1	HCT-15 colon	yes
CC(C)(C)c1cc(NC(=O)Nc2ccc(-c3cn4c5c(sc4n3)CCc3c[nH]cc3-5)cc2)no1	HCT-15 colon	yes
CS(=O)(=O)c1ccc(/C(=N/N=C(N)N)c2ccc(Cl)cc2)cc1	HCT-15 colon	no

Attention now turns to another entry.
Given C=C(C)[C@@H]1CC[C@]2(C(=O)N3CCN(C)CC3)CC[C@]3(C)[C@H](CC[C@@H]4[C@@]5(C)CC[C@H](OP(=O)(OCC)OCC)C(C)(C)[C@@H]5CC[C@]43C)[C@@H]12 , is recorded growth strictly lower than 50%? no
